// data source = ChEMBL document CHEMBL3988442

Tested on: Wolbachia pipientis
Test: Anti-Wolbachia Cell-Based Screen
Format: functional
Parameters: scale not given: in the data most compounds retested in dose-response had high values
Conditions: 5 µM
The whole screen tested about 48,000 compounds, of which about 13,000 (27%) showed an effect of 50% or more. The list shows a part of the results.
Listing of recorded Percent Effect by entry.

| compound | result_units | Percent Effect |
| --- | --- | --- |
| COC[C@H]1CCC[C@]12CN(S(=O)(=O)c1cccs1)CCO2 | % | -5.962 |
| CCC(=O)N1CCCCC1c1nc(O)c2c(n1)CN(S(C)(=O)=O)CC2 (stereo unspecified) | % | 103.7 |
| CC(C)OC[C@H]1CCC[C@]12CN(S(=O)(=O)c1cn(C)cn1)CCO2 | % | 110 |
| CCS(=O)(=O)CC(=O)N1CCCC1c1noc(C2CC2)n1 (stereo unspecified) | % | -5.674 |
| COC[C@@H]1CCC[C@]12CN(S(=O)(=O)c1cn(C)cn1)CCO2 | % | 112.9 |
| CCCS(=O)(=O)CC(=O)N1CCCC1c1noc(C2CC2)n1 (stereo unspecified) | % | -6.337 |

---

compounds and their reported Percent Effect
Tested on: Wolbachia pipientis
Assay: Anti-Wolbachia Cell-Based Screen
Format: functional
Parameters: scale not given: in the data most compounds retested in dose-response had high values
Details: 5 µM
In all, about 48,000 compounds went through this assay and about 13,000 (27%) showed an effect of 50% or more. This is one part of the list.

| compound | measurement_target | Percent Effect / % |
| --- | --- | --- |
| CC(C)CN1Cc2c(C(=O)NC3CC3)ncn2-c2ccccc2S1(=O)=O | Wolbachia pipientis | 24.74 |
| Cc1cnc(N2CCCOC(CN3CCCCC3)C2)nc1 (stereo not given) | Wolbachia pipientis | -5.032 |
| Cc1cccc(CN2CCN(c3nc(CO)cs3)CC2)c1 | Wolbachia pipientis | -5.528 |
| Cc1nsc(NC(=O)NC2(CN3CCCCC3)CCCCC2)n1 | Wolbachia pipientis | 1.448 |
| COCC1(Nc2nc(C)nc3c2cnn3C)CCCC1 | Wolbachia pipientis | 115.3 |
| CCOC(=O)CC(C)Nc1nc(C2CCCC2)nc2c1cnn2C (stereo not given) | Wolbachia pipientis | -2.112 |
| COCCCNC(=O)CN(C)C1CCCN(c2cccnn2)C1 (stereo not given) | Wolbachia pipientis | 138.8 |
| CCCNC(=O)c1ncn2c1CN(CC(C)C)S(=O)(=O)c1ccccc1-2 | Wolbachia pipientis | 51.12 |
| Cc1ccc(Cl)c(C(C(=O)O)N(C)Cc2cnn(C)c2)c1 (stereo not given) | Wolbachia pipientis | -5.56 |
| Cc1c(CS(C)(=O)=O)cccc1NC(=O)CC1CCCC1 | Wolbachia pipientis | -14.57 |
| Cc1ncc(C)c(N2Cc3cnn(Cc4ccc(F)cc4)c3C2)n1 | Wolbachia pipientis | 15.3 |
| CCn1c(C)nnc1SCCNc1nc(C)nc2c1cnn2C | Wolbachia pipientis | -4.457 |
| CCC(Nc1nc(C)nc2c1cnn2C)c1ncnn1CC (stereo not given) | Wolbachia pipientis | 13.02 |
| CCCc1nc(NC2(COC)CCCC2)c2cnn(C)c2n1 | Wolbachia pipientis | 85.47 |
| Cc1ccc(Cn2cc(C)c(N)n2)cc1 | Wolbachia pipientis | 101.5 |
| Cn1ncc2c(NCCC34CCCN3CCC4)nc(C3CCCC3)nc21 | Wolbachia pipientis | 4.055 |
| Cc1nc(NC2(CN3CCCCC3)CCCCC2)c2cnn(C)c2n1 | Wolbachia pipientis | 98.05 |
| CCOC(=O)CNc1nc(COC)nc2c1cnn2C | Wolbachia pipientis | 5.543 |
| CC(C)C1CN(Cc2nccn2C(C)C)CCC(=O)N1CC1CC1 (stereo not given) | Wolbachia pipientis | -13.37 |
| Cc1cn(Cc2ccc(F)cc2)nc1N | Wolbachia pipientis | 105.5 |
| Cc1nn(C)cc1Cn1cc(Cl)c(N)n1 | Wolbachia pipientis | -32.62 |
| CCOC(=O)CNc1nc(C(C)(C)C)nc2c1cnn2C | Wolbachia pipientis | 2.145 |
| CN1CCN(C(=O)c2ncn3c2CN(C)S(=O)(=O)c2ccccc2-3)CC1.O=C(O)C(F)(F)F | Wolbachia pipientis | 82.4 |
| CS(=O)(=O)CCNC(=O)Nc1sc2ccccc2c1Cl | Wolbachia pipientis | -6.956 |
| CCn1cc(Cn2cc(Cl)c(N)n2)c(C)n1 | Wolbachia pipientis | 11.61 |
